test system: β-galactosidase in CMV-LacZ C2C12 myoblasts; assay: CMV-LacZ secondary screen in C2C12 myoblasts (β-Gal stabilizing assay); format: cell-based, mouse; conditions: 40 uM; CMV-LacZ C2C12 myoblasts
Reported CMV-LACZ in Myoblasts (β-galactosidase activity relative to DMSO) by item:
// response body must contain only the number

O=C(Nc1ccccc1Cl)C1CCCN1C(=O)OCc1ccccc1 (stereo not drawn)	0.9063
Nc1ncnc(N2CCc3ccccc32)c1[N+](=O)[O-]	0.8237
O=C(O)c1csc(-c2cccs2)n1	0.8504

Return the recorded CMV-LACZ in Myoblasts (β-galactosidase activity relative to DMSO) value; entry: `COc1cccc(CN2CCN(Cc3ccco3)CC2)c1.O=C(O)C(=O)O`
0.8744

Return the recorded CMV-LACZ in Myoblasts (β-galactosidase activity relative to DMSO) value; entry: `O=C(CNC(=O)c1cccc(F)c1)N/N=C/c1cc(Br)ccc1OCc1ccccc1`
1.0593

Return the recorded CMV-LACZ in Myoblasts (β-galactosidase activity relative to DMSO) value; entry: `COC(=O)c1cc(S(=O)(=O)NCC2CCN(Cc3ccc(Cl)cc3)CC2)cn1C`
0.9811

Return the recorded CMV-LACZ in Myoblasts (β-galactosidase activity relative to DMSO) value; entry: N#CC1=C2SCN(c3ccccc3)CN2C(=O)CC1c1cccs1 (stereo not drawn)
0.8815

Return the recorded CMV-LACZ in Myoblasts (β-galactosidase activity relative to DMSO) value; entry: `COc1ccccc1C(=O)Nc1ccnn1C1CCN(C(=O)c2ccoc2)CC1`
0.8144

Return the recorded CMV-LACZ in Myoblasts (β-galactosidase activity relative to DMSO) value; entry: `Cn1cc(CN2CCC(C(=O)Nc3cccc(-c4cscn4)c3)CC2)cn1`
0.3873
